B1: PCDHGA10 (parent)
chain: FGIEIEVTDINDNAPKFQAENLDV

- Variants of: B1
- assay.overview: protein stability index of a GFP-peptide fusion (GPS, HEK-293T) (PSI 1-6); higher = more stable;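 also: lentivirally expressed fusions sorted by FACS into six bins by GFP to DsRed ratio, PSI derived from sequencing read proportions per bin multiplied by bin number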
- conditions.used: c terminus: a fixed tail appended
assay.metric: protein stability index

- mutant.designation: "I5F"
  assay.metric: "protein stability index"
  reading: 3.49
- mutant.designation: "N13F"
  assay.metric: "protein stability index"
  reading: 1.84
- mutant.designation: "D12W"
  assay.metric: "protein stability index"
  reading: 1.6
- mutant.designation: "I10M"
  assay.metric: "protein stability index"
  reading: 3.28
- mutant.designation: "D23L"
  assay.metric: "protein stability index"
  reading: 2.17
- mutant.designation: "T8E"
  assay.metric: "protein stability index"
  reading: 3.32
- mutant.designation: "I10R"
  assay.metric: "protein stability index"
  reading: 3.73
- mutant.designation: "V7L"
  assay.metric: "protein stability index"
  reading: 2.45
- mutant.designation: "N11H"
  assay.metric: "protein stability index"
  reading: 2.41
- mutant.designation: "I5K"
  assay.metric: "protein stability index"
  reading: 4.92
- mutant.designation: "D12Y"
  assay.metric: "protein stability index"
  reading: 1.56
- mutant.designation: "I10V"
  assay.metric: "protein stability index"
  reading: 3.24
- mutant.designation: "E6R"
  assay.metric: "protein stability index"
  reading: 1.7
- mutant.designation: "E20I"
  assay.metric: "protein stability index"
  reading: 2.72
- mutant.designation: "P15E"
  assay.metric: "protein stability index"
  reading: 3.24
- mutant.designation: "F17L"
  assay.metric: "protein stability index"
  reading: 3.33
- mutant.designation: "A19H"
  assay.metric: "protein stability index"
  reading: 3.18
- mutant.designation: "N21E"
  assay.metric: "protein stability index"
  reading: 3.46
- mutant.designation: "P15G"
  assay.metric: "protein stability index"
  reading: 3.52
- mutant.designation: "D12L"
  assay.metric: "protein stability index"
  reading: 1.49
- mutant.designation: "K16I"
  assay.metric: "protein stability index"
  reading: 2.48
- mutant.designation: "D12V"
  assay.metric: "protein stability index"
  reading: 2.05

Reference source: the supplement of paper PMC10567573
